Tested on: H22
Assay: Antitumor activity in mouse H22 cell xenografted mouse at 20 mg/kg/day, ip after 4 days
Format: functional
Details: 96 h, route intraperitoneal
Documented inhibition in vivo at 20 mg/kg/day across a set of compounds

{"Compound": "C=C1C(=O)[C@]23[C@H](OC(=O)C(Cc4ccccc4)NC(=O)CCC(=O)O)[C@@H]1CC[C@H]2[C@@]12CO[C@]3(O)[C@@H](O)[C@@H]1C(C)(C)CCC2=O (some centres undefined)", "inhibition in vivo at 20 mg/kg/day, %": 59.1}
{"Compound": "C=C1C(=O)[C@]23[C@H](OC(=O)C(Cc4ccccc4)NC(=O)/C=C/C(=O)O)[C@@H]1CC[C@H]2[C@@]12CO[C@]3(O)[C@@H](O)[C@@H]1C(C)(C)CCC2=O (some centres undefined)", "inhibition in vivo at 20 mg/kg/day, %": 62.5}
{"Compound": "C=C1C(=O)[C@]23[C@H](O)[C@H]1CC[C@H]2[C@@]12CO[C@]3(O)[C@@H](O)[C@@H]1C(C)(C)CC[C@@H]2O", "inhibition in vivo at 20 mg/kg/day, %": 42.7}
{"Compound": "C=C1C(=O)[C@]23[C@H](OC(=O)CNC(=O)/C=C/C(=O)O)[C@@H]1CC[C@H]2[C@@]12CO[C@]3(O)[C@@H](O)[C@@H]1C(C)(C)CC[C@@H]2OC(C)=O", "inhibition in vivo at 20 mg/kg/day, %": 64.9}
